# EXPERIMENTAL TARGET: Nuclear receptor subfamily 1 group I member 3 (Homo sapiens)
# METHOD NOTES: qHTS for Constitutive Androstane Receptor (CAR) Antagonist screened against the NCATS CANVASS Library (AID 1347372)
# EXPERIMENTAL PARAMETERS: HepG2-hCAR-CYP2B6 luciferase, CITCO-stimulated antagonist mode; series mostly up to 46.1 µM
Records with an inconclusive call do not appear. The source made the active and inactive calls. Calls come from the whole dose curve; as a rule, active = well fitted inhibition curve with a large enough effect; inconclusive = small, poorly fitted or top-dose-only effect; inactive = no such curve, though single readings can be large or run the other way.
// classify into yes for active, no for inactive

Example results:
Q: Query: recorded result category for CC[C@H]1CN2CCc3c([nH]c4cccc(OC)c34)[C@@H]2C[C@@H]1/C(=C\OC)C(=O)OC in this test
Result: no

Q: Query: recorded result category for C/C=C/[C@@H]1[C@H]2C[C@@H](C)CC[C@@H]2C(C)=C[C@H]1C(=O)c1c(O)c(-c2ccc(O)cc2)c[nH]c1=O in this test
Result: no

Lab note: next molecule to report on.
Q: Query: recorded result category for CO[C@H]1C[C@H](O[C@H]2[C@@H](O)C[C@H](O[C@H]3CC[C@]4(C=O)[C@H]5CC[C@]6(C)C(C7=CC(=O)OC7)CC[C@]6(O)[C@@H]5CC[C@]4(O)C3)O[C@@H]2C)O[C@H](C)[C@H]1O[C@H]1C[C@@H](OC)[C@@H](O[C@@H]2O[C@H](CO)[C@@H](O)[C@H](O)[C@H]2O)[C@@H](C)O1 (stereo not given in full) in this test
Result: yes

Just for reference, PubChem BioAssay (NCATS) is where these values come from.
